test: APR_HepG2_MitoticArrest_24hr: Apredica 24-hour HepG2 Assay for Mitotic Arrest (AID 2282910); settings: high-content imaging, actives raise or lower the signal
Calls of active or inactive are those of the source. The calls were made as follows: active = hit-call score of the fitted dose curve at least 0.9, where 1 is the maximum; inactive = score below 0.9.
Valid outcomes are listed here; reply with one: y for active, n for inactive

{"compound": "Oc1ccccc1O", "class": "n"}

Asked: Look up the recorded call for CCCC[C@H]1CN(CC2CCOCC2)C(=O)OC12CCN(C1(C)CCN(C(=O)c3c(C)ncnc3C)CC1)CC2 in this test.
Given back: n

Asked: Can you check CCCCC(CC)COP(=O)(OCC(CC)CCCC)OCC(CC)CCCC (stereo unspecified) next?
Given back: y

###

read-out: Interleukin-8 (IL8), CXCL8 (gene 3576); experiment: BSK_3C_IL8: BioMAP Diversity Plus: 3C Assay for Interleukin-8 (IL8) Biomarker Activity (AID 2283020); conditions: primary human endothelial cells (HUVEC); actives raise or lower the signal
The source made the active and inactive calls. The calls were made as follows: active = hit-call score of the fitted dose curve at least 0.9, where 1 is the maximum; inactive = score below 0.9.
Valid outcomes are listed here; reply with one: active, inactive

These solved cases illustrate the format of a correct answer.
{"molecule": "CC1(C)C(=O)NC(=O)N1CO", "class": "inactive"}
{"molecule": "CCCCC(CC)CO (centres undefined)", "class": "inactive"}
{"molecule": "O=C(O)CN(CC(=O)O)CC(=O)O", "class": "inactive"}
{"molecule": "C=CCc1ccc(OC)c(OC)c1", "class": "inactive"}
{"molecule": "CN(C)CCCN(C)CCCN(C)C", "class": "inactive"}
{"molecule": "CS(=O)(=O)c1ccc([C@@H](C[C@H]2CCC(=O)C2)C(=O)Nc2cnccn2)cc1Cl", "class": "inactive"}
{"molecule": "Nc1nc(=S)c2[nH]cnc2[nH]1", "class": "inactive"}
{"molecule": "S=c1[nH]c2ccccc2s1", "class": "inactive"}

Asked: Look up the recorded call for CCCCCCCCCC[N+](C)(C)[O-] in this test.
Given back: inactive

Asked: Can you check NCCOCCOCCN next?
Given back: inactive

Asked: Can you check O=[Si]=O next?
Given back: inactive

Asked: Can you check CC(=O)OCC(COC(C)=O)OC(C)=O next?
Given back: inactive

Asked: Can you check CN(C)C(=O)NC1(c2ccccc2)CCN(CCC[C@]2(c3ccc(Cl)c(Cl)c3)CCCN(C(=O)c3ccccc3)C2)CC1 next?
Given back: active

Asked: Can you check CC(N)=O next?
Given back: inactive

###

read-out: Urokinase-type plasminogen activator receptor (uPAR), PLAUR (gene 5329); test: BSK_4H_uPAR: BioMAP Diversity Plus: 4H Assay for Urokinase-type plasminogen activator receptor (uPAR) Biomarker Activity (AID 2283030); conditions: primary human endothelial cells (HUVEC); actives raise or lower the signal
The source made the active and inactive calls. How the source made its calls: active means hit-call score of the fitted dose curve at least 0.9, where 1 is the maximum; inactive means score below 0.9.
Valid outcomes are listed here; reply with one: active, inactive

Asked: Look up the recorded call for CCCCC(CC)CO (stereo not drawn) in this test.
Given back: inactive

###

assay: STM_H9_OrnithineISnorm_perc: Stemina devTOX quickPredict H9 human embryonic stem cell (hESC)-based Assay for Ornithine (ORN) Metabolite Biomarker, Normalized (AID 2283712);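 also: ornithine released into spent medium during last day measured by mass spectrometry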
Calls of active or inactive are those of the source. The calls were made as follows: active = hit-call score of the fitted dose curve at least 0.9, where 1 is the maximum; inactive = score below 0.9.
Valid outcomes are listed here; reply with one: active, inactive

These solved cases illustrate the format of a correct answer.
{"molecule.smiles": "CCN(CC)CCOc1ccc(C(=C(Cl)c2ccccc2)c2ccccc2)cc1", "class": "active"}
{"molecule.smiles": "CC(=O)[C@@]1(O)CC[C@H]2[C@@H]3CCC4=CC(=O)CC[C@]4(C)[C@H]3CC[C@@]21C", "class": "active"}
{"molecule.smiles": "CC(C)OC(=O)C(C)(C)Oc1ccc(C(=O)c2ccc(Cl)cc2)cc1", "class": "inactive"}

Asked: Look up the recorded call for CCCC[C@H]1CN(CC2CCOCC2)C(=O)OC12CCN(C1(C)CCN(C(=O)c3c(C)ncnc3C)CC1)CC2 in this test.
Given back: inactive

Asked: Can you check CCc1cc(C2=C(C(=O)O)N(c3ccccc3C(F)(F)F)S(=O)(=O)c3ccccc32)cc2c1OCO2 next?
Given back: inactive
